# protocol-description: Inhibition of Influenza A virus (A/Guangdong/03/2009(H1N1)) neuraminidase using 4-MUNANA as substrate preincubated for 1 hr followed by substrate addition and measured after 1 hr by fluorescence assay
observation-type: pIC50
In simple prose, pIC50 is minus the logarithm base ten of a concentration in moles per litre.

Record request: pIC50 value, item C/C=C/Oc1cc(C=O)ccc1O
4.55

* * *

# protocol-description: Inhibition of Influenza A virus (A/Guangdong/05/2009(H1N1)) neuraminidase using 4-MUNANA as substrate preincubated for 1 hr followed by substrate addition and measured after 1 hr by fluorescence assay
observation-type: pIC50
As a rule, pIC50 stands for the negative log10 of the concentration, concentration in M.

Fill in the blank: the reported pIC50 of C/C=C/Oc1cc(C=O)ccc1O is ____.
4.60

* * *

Reported Ki is given for each of the following compounds.
# protocol-description: Binding affinity to influenza A/Beijing/262/95 H1N1 neuraminidase expressed in baculovirus expression system using sialyl-lactose as substrate
I'd appreciate it if you included the unit after the number.

Name the recorded Ki for O=S(=O)(O)c1cccc(Nc2nc(Cl)nc(Nc3cccc(S(=O)(=O)O)c3)n2)c1 .
130 nM

Request the reported Ki associated with Nc1c(S(=O)(=O)O)cc(Nc2ccc(Nc3nc(Cl)nc(Nc4ccccc4S(=O)(=O)O)n3)c(S(=O)(=O)O)c2)c2c1C(=O)c1ccccc1C2=O
2900 nM

Form field: reported Ki of O=S(=O)(O)c1ccccc1Nc1nc(Cl)nc(Nc2ccccc2S(=O)(=O)O)n1
280 nM
